Reported t½ Ratio (pH 7.4/pH 6.0) by item:
# tgt: T1, cynomolgus monkey IL-33 expressed with a C-terminal hexahistidine tag (cynomolgus monkey)
# T1 construct: also called MfIL-33-6His; Mf-IL-33-6His
# T1 chain: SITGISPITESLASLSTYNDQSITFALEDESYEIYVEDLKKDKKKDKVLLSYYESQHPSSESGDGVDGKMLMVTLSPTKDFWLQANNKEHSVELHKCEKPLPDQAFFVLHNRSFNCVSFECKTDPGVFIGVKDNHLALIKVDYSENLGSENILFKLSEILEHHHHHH
# assay_explanation: SPR 25C, pH6.0 chase, mAb captured

Data request: What value of t½ Ratio (pH 7.4/pH 6.0) has been reported for the following binder? H4H9640P (antibody, human IgG4, V domains shown, Human IgG4 Fc (H4H)) VH: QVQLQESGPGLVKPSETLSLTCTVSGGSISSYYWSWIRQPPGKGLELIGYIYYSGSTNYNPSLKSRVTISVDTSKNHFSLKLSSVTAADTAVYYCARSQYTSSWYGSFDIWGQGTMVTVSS VL: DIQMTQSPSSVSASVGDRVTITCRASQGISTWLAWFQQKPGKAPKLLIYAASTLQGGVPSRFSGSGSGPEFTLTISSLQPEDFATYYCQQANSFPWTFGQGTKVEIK
Data returned: 0.4

Data request: How about H4H9663P (antibody, human IgG4, V domains shown, Human IgG4 Fc (H4H)) VH: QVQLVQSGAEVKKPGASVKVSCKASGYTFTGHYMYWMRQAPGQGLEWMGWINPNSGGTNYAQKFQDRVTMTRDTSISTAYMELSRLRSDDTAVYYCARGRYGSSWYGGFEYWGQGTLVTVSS VL: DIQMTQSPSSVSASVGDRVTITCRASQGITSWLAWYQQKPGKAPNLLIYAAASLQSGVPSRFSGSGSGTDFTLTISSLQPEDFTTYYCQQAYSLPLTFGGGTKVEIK ?
Data returned: 0.7

Data request: How about H4H9666P (antibody, human IgG4, V domains shown, Human IgG4 Fc (H4H)) VH: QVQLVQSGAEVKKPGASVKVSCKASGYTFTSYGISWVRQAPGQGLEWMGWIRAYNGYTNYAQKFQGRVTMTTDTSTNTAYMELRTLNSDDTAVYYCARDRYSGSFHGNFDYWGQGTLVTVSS VL: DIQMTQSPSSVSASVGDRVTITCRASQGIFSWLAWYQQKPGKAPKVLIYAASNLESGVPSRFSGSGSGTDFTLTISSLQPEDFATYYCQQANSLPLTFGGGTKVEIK ?
Data returned: 2.3
